Ref: patent US20190184007A1

- Test Target: T1, HLA DQA1*0102:DQB1*0602, P01920
- T1 chain 1: not shown
- T1 chain 2: not shown
- Test Method Notes: REVEAL class II binding assay (cell-free)
Reported Metric: REVEAL 24 hours (% of positive control signal)
Numbers only.

The cases that follow already have their REVEAL 24 hours (% of positive control signal) on record.
Binder	Number
ALSRGFGSGIITSNA (modifications not checked) [Peptide #18 (Hemagglutinin fragment)]	0
IDPFKLLQNSQVVSL (modifications not checked) [Peptide #8 (Common CP sequence)]	0.1
RELILYDKEEIRRIWRQANNG (modifications not checked) [Peptide #1 (X179-A NP fragment)]	16.9

// switching to the query binder
I'd like to know its REVEAL 24 hours (% of positive control signal). The binder in question is EKATNPIVPSFDMSN (modifications not checked) [Peptide #7 (Common CP sequence)] 0
